# TGI per entry
# Tested on: NCI-H460 lung
# protocol_summary: NCI tumour cell line growth inhibition, 48 h

compound: CC1(O)CC23CC(O)C4(O)C(CC(O)C4(C)C)C(C)(O)C2CCC1C3O (configuration not stated)
TGI: > 100 µM
//
compound: CCOC(=O)C(=O)Nc1nc2ccc(OC)cc2s1
TGI: > 100 µM
//
compound: O=c1[nH]c2ccccc2c(=O)n1/N=C\c1ccccc1O
TGI: > 100 µM
//
compound: COc1ccc(C=C2C(C)=NN(c3cccc(Cl)c3)C23C(Cl)C(=O)N3c2nc3ccccc3s2)cc1 (configuration not stated)
TGI: 66.6 µM
//
compound: CN(C)CCCNC(=O)N/N=C/c1ccccn1
TGI: > 10 µM
//
compound: C=C(CCC(=O)N(CCc1c[nH]c2ccccc12)C(=O)c1ccccc1CSCC)C(=O)OC
TGI: > 100 µM
//
compound: Nc1cccc(C(=O)/C=C/c2ccccc2O)c1
TGI: > 100 µM
//
compound: COc1cc([C@H]2c3cc4c(cc3[C@H](NCc3ccc(F)cc3)C3COC(=O)[C@H]32)OCO4)cc(OC)c1O (some centres not stated)
TGI: 12.3 µM
//
compound: Cc1ccc(-n2cc(/C(N)=N/O)c3ccccc3c2=O)cc1
TGI: > 100 µM
//
compound: Oc1ccccc1/C=N/c1nc(-c2ccccc2)cs1
TGI: > 100 µM
//
compound: O=C1Cc2c([nH]c3ccccc23)-c2cc(Br)ccc2N1
TGI: > 100 µM
//
compound: CN1CCN(Cc2ccc(C(=S)Nc3ccccc3)s2)CC1
TGI: > 100 µM
//
compound: CNc1ccc(CSc2ccc(C)cc2)cc1
TGI: > 100 µM
//
compound: Cc1nc2sc(C(=O)Nc3cccc(Cl)c3)c(N)c2cc1C(O)c1ccccc1 (configuration not stated)
TGI: 1.85 µM
//
compound: CC[P+](c1ccccc1)(N(C)C)N(C)C
TGI: > 100 µM
//
compound: Cn1c(COC(=O)NC2CCCCC2)c(COC(=O)NC2CCCCC2)c2ccc3ccccc3c21
TGI: 13.5 µM
//
compound: Nc1ccc2c3c1cccc3c(=O)n1c3ccc(Cc4ccc5c(c4)nc4c6ccc(N)c7cccc(c(=O)n54)c76)cc3nc21
TGI: > 100 µM
//
compound: c1csc(-c2cc(-c3ccsc3)cs2)c1
TGI: > 100 µM
//
compound: CC(C)(C)C(=O)C(N)C(=O)C(C)(C)C
TGI: > 100 µM
//
compound: FC(F)(Sc1ncccn1)c1nc2ccccc2o1
TGI: > 100 µM
//
compound: Clc1cc(Cl)cc(Nc2ccc3c(OCCCN4CCOCC4)cccc3n2)c1
TGI: 5.86 µM
//
compound: c1ccc2c(c1)ccc1cc3cc(NCCCCNc4ccc5nc6c(ccc7ccccc76)cc5c4)ccc3nc12
TGI: 0.53 µM
//
compound: COc1ccc(Nc2nc(N)c(C(=O)c3ccco3)s2)cc1
TGI: > 53.3 µM
//
compound: COc1cc([N+](=O)[O-])c(S(=O)(=O)O)cc1-[n+]1nc(C(=O)Nc2ccccc2)nn1-c1ccc([N+](=O)[O-])c(S(=O)(=O)[O-])c1
TGI: > 100 µM
//
compound: Fc1nc(Sc2ncnc3nc[nH]c23)nc(-c2c3ccccc3c3sc4ccccc4n23)n1
TGI: > 100 µM
//
compound: Cc1cc(C)n(C(C)(C(=O)Cc2ccccc2)n2nc(C)cc2C)n1
TGI: > 100 µM
//
compound: Cc1cc(C)n(C(=CC(=O)C(Cl)Cl)n2nc(C)cc2C)n1
TGI: 34.1 µM
//
compound: COC1=C(OC)C(=O)C(Cc2c(-c3ccccc3)nc3sc(Cl)cn23)=C(C)C1=O
TGI: 40 µM
//
compound: CCOc1ccc(Nc2nc(N)nc(N)c2N=O)cc1
TGI: > 100 µM
//
compound: CCCCCCCC(=O)OC[n+]1cccc(-c2c(COC(=O)NC(C)C)c(COC(=O)NC(C)C)c3n2CCC3)c1
TGI: > 100 µM
//
compound: CN(Cc1cnc2nc(N)nc(N)c2n1)c1c(Cl)cc(C(=O)NC(CCC(=O)O)C(=O)O)cc1Br (configuration not stated)
TGI: > 100 µM
//
compound: C[N+](C)([O-])C12CC3CC(CC(C3)C1)C2
TGI: > 100 µM
//
compound: CN(Cc1ccccc1)C(=S)S
TGI: > 100 µM
//
compound: O=[N+]([O-])/C(=C/C=C/c1ccccc1)c1ccccc1
TGI: 11.3 µM
//
compound: CC(=O)Nc1ccc2c(c1)[nH]c(=O)c1cc(Cl)ccc12
TGI: 52.9 µM
//
compound: CCOC(=O)CCC(C(=O)OCC)n1nnc2cc(Nc3c(C)[n+]([O-])c4cc(Cl)ccc4[n+]3[O-])ccc21 (configuration not stated)
TGI: > 100 µM
//
compound: CC1CC(C)(C)CC(OCCN2CCCCC2)(c2ccccc2)C1 (configuration not stated)
TGI: 17.5 µM
//
compound: C=C(/C=C/C=C(\CO)CCC=C(C)C)[C@H]1CCC2([C@H](CCCO)/C(=C(/C)C=O)CC[C@]2(C)O)[C@H]1O (some centres not stated)
TGI: > 100 µM
//
compound: Nc1ncnc2c1ncn2C1C(O)C=C(CO)C1O (configuration not stated)
TGI: > 625 µM
//
compound: COc1cc(C(=O)Nc2ccc(-c3nc4ccccc4[nH]3)cc2)cc(OC)c1OC
TGI: 22.7 µM
//
compound: Fc1cccc(C2ON=C(c3ccccc3)N2C23CC4CC(CC(C4)C2)C3)c1 (configuration not stated)
TGI: > 10 µM
//
compound: CN=C1C=C(/N=C2/C=C(N/C(=C\C#N)C(C)(C)O)OC2(C)C)OC1(C)C
TGI: > 100 µM

----------
# Tested on: SW-620 colon
# protocol_summary: NCI tumour cell line growth inhibition, 48 h

compound: CCOc1ccc(N=Nc2c(-c3ccccc3)nn(C(=O)CC(=O)Nc3ccccc3Cl)c2-c2ccccc2)cc1
TGI: > 100 µM
//
compound: CC[C@]1(O)C[C@@H]2CN(CCc3c([nH]c4ccccc34)[C@@](C(=O)OC)(c3cc4c(cc3OC)N(C)[C@H]3[C@@](O)(C(=O)OC)[C@H](OC(=O)CCCBr)[C@]5(CC)C=CCN6CC[C@]43[C@@H]65)C2)C1
TGI: > 100 µM
//
compound: O=c1ccc(=O)c2c1c1[nH]c3ccccc3c1c1c(=O)c3ccccc3c(=O)c21
TGI: > 10 µM
//
compound: CCOc1ccc(Nc2nc(N)nc(N)c2N=O)cc1
TGI: > 100 µM
//
compound: CC1CC(C)(C)CC(OCCN2CCCCC2)(c2ccccc2)C1 (stereo not drawn)
TGI: 32.5 µM
//
compound: N=C(N)c1ccc(N=Nc2c(O)c(C(=O)Nc3ccccc3)cc3ccccc23)cc1
TGI: > 100 µM
//
compound: O=[N+]([O-])/C(=C/C=C/c1ccccc1)c1ccccc1
TGI: 3.67 µM
//
compound: COc1ccc(C=C2C(C)=NN(c3cccc(Cl)c3)C23C(Cl)C(=O)N3c2nc3ccccc3s2)cc1 (stereo not drawn)
TGI: 20.7 µM
//
compound: O=c1c2ccccc2n2nnc3ccc(NCCNCCO)c1c32
TGI: 6.44 µM
//
compound: FC(F)(Sc1ncccn1)c1nc2ccccc2o1
TGI: > 100 µM
//
compound: CN1CCC(C(=O)Nc2n[nH]c3nnc(-c4ccccc4)cc23)CC1
TGI: > 25 µM
//
compound: CN(Cc1cnc2nc(N)nc(N)c2n1)c1c(Cl)cc(C(=O)NC(CCC(=O)O)C(=O)O)cc1Br (stereo not drawn)
TGI: > 100 µM
//
compound: COc1cc(C(=O)/C=C/c2c(C)n([O-])c3ccc(Cl)cc3[n+]2=O)cc(OC)c1OC
TGI: 11.7 µM
//
compound: Cc1c(C)c2c(c(N)c1C#N)C(=O)N(NC(=S)Nc1ccccc1)C2=O
TGI: > 100 µM
//
compound: Fc1nc(Sc2ncnc3nc[nH]c23)nc(-c2c3ccccc3c3sc4ccccc4n23)n1
TGI: > 100 µM
//
compound: Cc1nc(Nc2ccc(Cl)c(Cl)c2)sc1C(/C=C/c1ccc2c(c1)OCO2)=N/Nc1ccc([N+](=O)[O-])cc1[N+](=O)[O-]
TGI: > 100 µM
//
compound: CC[P+](c1ccccc1)(N(C)C)N(C)C
TGI: > 100 µM
//
compound: COc1ccc2c(c1)CCC1C2CCC2(C)C(NC(=O)CCCCC3CCSS3)CCC12 (stereo not drawn)
TGI: > 100 µM
//
compound: C#CCN(CCCOc1ccc(Cl)cc1Cl)CCCSC(=O)CCCCCN1/C(=C\C=C2/CCCC(/C=C/C3=[N+](CCCCCC(=O)[O-])c4ccccc4C3(C)C)=C2Cl)C(C)(C)c2ccccc21
TGI: 5.44 µM
//
compound: COc1cc(-c2cc(OC)c(OC)c3ccc(Br)cc23)c2cc(Br)ccc2c1OC
TGI: > 100 µM
//
compound: CCOC(=O)c1cnc2c(ccc3ncccc32)c1OCC
TGI: > 100 µM
//
compound: Cc1ncc([N+](=O)[O-])n1CCOc1ccc(C(=O)/C=C/c2ccc(C(F)(F)F)cc2)cc1
TGI: 4.03 µM
//
compound: O=c1[nH]c(NCCCCCO)nc2nc[nH]c12
TGI: > 100 µM
//
compound: COc1ccc2c3c(c4cc(OC)c(OC)cc4c2c1)CN1CCC[C@H]1[C@@H]3O
TGI: > 39.8 µM
//
compound: Cc1cc(N(CCC#N)CCC#N)ccc1/C=C1N=C(/C=C\c2ccccc2)N(c2ccc(C(=O)O)cc2)C\1=O
TGI: > 100 µM
//
compound: CCCC/C=C1/CCC(CN(C)C)C1=O (stereo not drawn)
TGI: 2.88 µM
//
compound: O=C(/C=N/O)Nc1cccc(Cl)c1I
TGI: > 100 µM
//
compound: N#CC(C#N)=C/C=C/c1ccccc1[N+](=O)[O-]
TGI: > 10 µM
//
compound: Oc1ccccc1/C=N/c1nc(-c2ccccc2)cs1
TGI: 40 µM
//
compound: CCCCCCCCCCCCCCCCOC[C@H](COC(c1ccccc1)(c1ccccc1)c1ccccc1)O[P+](=S)OC (stereo partly drawn)
TGI: > 100 µM
//
compound: CCOC(=O)C(NC(=O)c1ccccc1)(Nc1ccc(S(=O)(=O)Nc2cc(C)on2)cc1)C(F)(F)F (stereo not drawn)
TGI: > 100 µM
//
compound: CC1CC[C@@]2(OC1)OC1C[C@H]3[C@@H]4CC=C5C[C@@H](OC6OC(CO)C(OC7OC(CO)C(O)C(O)C7O)C(O)C6OC6OC(C)C(O)C(O)C6O)CC[C@]5(C)[C@H]4CC[C@]3(C)C1[C@@H]2C (stereo partly drawn)
TGI: 1.51 µM
//
compound: COc1ccc(Nc2nc(N)c(C(=O)c3ccco3)s2)cc1
TGI: > 100 µM
//
compound: Cc1ccc(-n2cc(/C(N)=N/O)c3ccccc3c2=O)cc1
TGI: > 100 µM
//
compound: Cc1c(C(=O)/C=C/c2ccc3c(c2)OCO3)[n+](=O)c2ccccc2n1[O-]
TGI: > 100 µM
//
compound: COc1cc2c(cc1OC)C(C1CC1)ON(C)CC2 (stereo not drawn)
TGI: > 100 µM
//
compound: CCCCCCCC(=O)OC[n+]1cccc(-c2c(COC(=O)NC(C)C)c(COC(=O)NC(C)C)c3n2CCC3)c1
TGI: > 100 µM
//
compound: COC(=O)C1C(=O)NC2(C)CC1c1ccccc1O2 (stereo not drawn)
TGI: > 100 µM
